Reference source: patent US9873702B2

- tested-system: dopamine transporter (DAT) (Rattus norvegicus)
- Sequence (P23977 whole entry): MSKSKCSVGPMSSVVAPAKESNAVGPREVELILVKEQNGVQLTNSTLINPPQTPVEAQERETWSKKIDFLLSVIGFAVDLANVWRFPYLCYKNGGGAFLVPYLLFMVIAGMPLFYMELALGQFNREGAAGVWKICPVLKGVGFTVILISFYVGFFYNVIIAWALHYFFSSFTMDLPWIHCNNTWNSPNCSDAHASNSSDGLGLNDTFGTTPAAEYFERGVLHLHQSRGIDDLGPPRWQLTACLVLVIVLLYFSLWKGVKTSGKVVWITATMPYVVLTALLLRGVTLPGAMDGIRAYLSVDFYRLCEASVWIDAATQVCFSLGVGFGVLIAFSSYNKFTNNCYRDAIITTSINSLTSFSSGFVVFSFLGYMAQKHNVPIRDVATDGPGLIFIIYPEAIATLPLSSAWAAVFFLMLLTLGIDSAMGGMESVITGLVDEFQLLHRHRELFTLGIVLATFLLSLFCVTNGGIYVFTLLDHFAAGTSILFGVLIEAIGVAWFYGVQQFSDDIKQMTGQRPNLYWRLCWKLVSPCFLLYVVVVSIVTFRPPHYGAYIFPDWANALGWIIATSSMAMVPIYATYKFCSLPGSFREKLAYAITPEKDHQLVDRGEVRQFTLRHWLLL
- experiment: Dopamine reuptake ([^3H]dopamine uptake) inhibition in rat brain synaptosomes
- run-conditions: DA Uptake EC50 (nM ± SD), rat caudate synaptosomes; 5 nM [^3H]dopamine; 15 min, 25° C.; three experiments pooled
property-label: IC50 (nM)
// return numeric value only (unit: nM, not printed)

Consider the worked cases shown below.
[
  {
    "compound": "CCOC(=O)c1cn2cc(-c3nc(NCC(c4ccccc4)c4ccccc4)c4ccccc4n3)ccc2n1",
    "property-label": "IC50",
    "value-units": "nM",
    "reported-value": 74
  },
  {
    "compound": "Cn1ncc2c(-c3nc(NCC(c4ccccc4)c4ccccc4)c4ccccc4n3)cccc21",
    "property-label": "IC50",
    "value-units": "nM",
    "reported-value": 155
  },
  {
    "compound": "c1ccc(C(CNc2nc(-c3ccncc3)nc3ccccc23)c2ccccc2)cc1",
    "property-label": "IC50",
    "value-units": "nM",
    "reported-value": 47
  }
]

Shift focus to the following entry.
Q: Supply measured IC50 of "c1ccc(C(CNc2nc(-c3ccc4cc[nH]c4c3)nc3ccccc23)c2ccccc2)cc1" in your reply.
Result: 89
